Where do these numbers come from? They come from patent US20240067632A1.

Listed here: items and their measured 293T-LentiX WEE1-ePL Degradation 4 hr (Ymin).
testTarget: WEE1 (Homo sapiens, UniProt P30291+Q96SW2)
Construct: C-terminal ePL-tagged (DiscoverX, Fremont, CA) full-length WEE1 expression construct; expressed in transfected cells; host or cells: LentiX-HEK293T (Invitrogen), lentiviral transduction; co-expressing GSPT1-GN (G576N, lacking the first 158 amino acids)
assay: WEE1-ePL degradation assay (LentiX-WEE1-ePL-GSPT1-ND cells, InCELL Hunter luminescence, 4 h)
Assay type: cell-based
measurementContext: 293T-LentiX WEE1-ePL cells, lower limit of the fit (0 = luciferase inhibitor, Ymax = DMSO control)
Could you keep your reply to the number by itself?

1. CNC1(c2ccc3cc(CN4CC[C@H](Oc5ccc6c(c5)CN(C5CCC(=O)NC5=O)C6=O)C4)ccc3n2)COC1 (some centres unmarked)
36

Query :: Value lookup for 293T-LentiX WEE1-ePL Degradation 4 hr (Ymin); key = Cc1cc(O)c2cc(CN3CC[C@H](Oc4ccc5c(c4)CN(C4CCC(=O)NC4=O)C5=O)C3)ccc2n1 (some centres unmarked)
Result :: 73

Query :: Value lookup for 293T-LentiX WEE1-ePL Degradation 4 hr (Ymin); key = O=C1CCC(N2Cc3cc(O[C@H]4CCN(Cc5ccc6nc(NC(=O)C7CCOCC7)ccc6c5)C4)ccc3C2=O)C(=O)N1 (some centres unmarked)
Result :: 29

Query :: Value lookup for 293T-LentiX WEE1-ePL Degradation 4 hr (Ymin); key = O=C1CCC(N2Cc3cc(O[C@H]4CCN(Cc5cccc6ncccc56)C4)ccc3C2=O)C(=O)N1 (some centres unmarked)
Result :: 32.69

Query :: Value lookup for 293T-LentiX WEE1-ePL Degradation 4 hr (Ymin); key = O=C1CCC(N2Cc3cc(O[C@H]4CCN(Cc5cc6ccccc6nn5)C4)ccc3C2=O)C(=O)N1 (some centres unmarked)
Result :: 26.03

Query :: Value lookup for 293T-LentiX WEE1-ePL Degradation 4 hr (Ymin); key = CNc1ccc2cc(CN3CC[C@H](Oc4ccc5c(c4)CN(C4CCC(=O)NC4=O)C5=O)C3)ncc2c1 (some centres unmarked)
Result :: 32

Query :: Value lookup for 293T-LentiX WEE1-ePL Degradation 4 hr (Ymin); key = Cc1ccc2cc(CN3CC[C@H](Oc4ccc5c(c4)CN(C4CCC(=O)NC4=O)C5=O)[C@H]3C)ccc2n1 (some centres unmarked)
Result :: 34

Query :: Value lookup for 293T-LentiX WEE1-ePL Degradation 4 hr (Ymin); key = CNC1(c2ccc3cc(CN4CC[C@H](Oc5ccc6c(c5)CN(C5CCC(=O)NC5=O)C6=O)C4)ncc3c2)COC1 (some centres unmarked)
Result :: 33

----------
testTarget: WEE1 (Homo sapiens, UniProt P30291+Q96SW2)
Construct: C-terminal ePL-tagged (DiscoverX, Fremont, CA) full-length WEE1 expression construct; expressed in transfected cells; host or cells: LentiX-HEK293T (Invitrogen), lentiviral transduction; co-expressing GSPT1-GN (G576N, lacking the first 158 amino acids)
assay: WEE1-ePL degradation assay (LentiX-WEE1-ePL-GSPT1-ND cells, InCELL Hunter luminescence, 4 h)
Format: cell-based
measurementContext: 293T-LentiX WEE1-ePL cells, read-out: 293T-LentiX WEE1-ePL Degradation 4 hr (EC50)
Description: To generate LentiX-WEE1-ePL-GSPT1-ND cells for the WEE1 degradation assay, LentiX-HEK293T (Invitrogen) were transduced by lentivirus with a C-terminal ePL-tagged (DiscoverX, Fremont, CA) full-length WEE1 expression construct. […] Cells were selected and maintained in complete DMEM media (DMEM, 10% Heat Inactivated FBS, 400 μg/mL Geneticin, and 1 μg/mL puromycin at 37 C and 5% CO2). Cells were passaged every 3-4 days by reseeding 1×10^6 cells in a T150 flask. […]
Listed here: items and their measured DC50.
Give the value in nM but do not write nM after it.

# example entries with known answers
1. CN1CC[C@@H](c2ncc3cc(CN4CC[C@H](Oc5ccc6c(c5)CN(C5CCC(=O)NC5=O)C6=O)C4)ccc3n2)C1 (stereo partly shown)
225
2. O=C1CCC(N2Cc3cc(O[C@H]4CCN(Cc5ccc6nc(COC7COC7)ccc6c5)C4)ccc3C2=O)C(=O)N1 (stereo partly shown)
122
3. COC[C@@H]1CN(Cc2ccc3nc(C4CCOCC4)ncc3c2)C[C@H]1Oc1ccc2c(c1)CN([C@H]1CCC(=O)NC1=O)C2=O
17.6
4. O=C1CCC(N2Cc3cc(O[C@H]4CCN(Cc5ccc6nc(C7(O)CCOCC7)ccc6c5)C4)ccc3C2=O)C(=O)N1 (stereo partly shown)
8.84

Query :: Query DC50 on WEE1 (Homo sapiens, UniProt P30291+Q96SW2) for COC[C@@H]1CN(Cc2ccc3nc(C4CCOCC4)ccc3c2)C[C@H]1Oc1ccc2c(c1)CN(C1CCC(=O)NC1=O)C2=O (stereo partly shown)
Result :: 3.08

Query :: Query DC50 on WEE1 (Homo sapiens, UniProt P30291+Q96SW2) for O=C1CCC(N2Cc3cc(O[C@H]4CCN(Cc5ccc6nc([C@H]7CC[C@H](O)CC7)ccc6c5)C4)ccc3C2=O)C(=O)N1 (stereo partly shown)
Result :: 4.67

Query :: Query DC50 on WEE1 (Homo sapiens, UniProt P30291+Q96SW2) for N#Cc1ccc2cc(CN3CC[C@H](Oc4cc5c(cc4F)C(=O)N(C4CCC(=O)NC4=O)C5)C3)ccc2n1 (stereo partly shown)
Result :: 5.28
